Entry source: patent US10479780B2

target: human Src enzyme (Homo sapiens, UniProt P12931); construct: purchased Carna Biosciences, Inc. 08-173; test: Src enzyme inhibitory activity (time-resolved fluorometry, biotinylated peptide phosphorylation); format: biochemical; conditions: read-out: SRC_IC50
Sequence (P12931 whole entry): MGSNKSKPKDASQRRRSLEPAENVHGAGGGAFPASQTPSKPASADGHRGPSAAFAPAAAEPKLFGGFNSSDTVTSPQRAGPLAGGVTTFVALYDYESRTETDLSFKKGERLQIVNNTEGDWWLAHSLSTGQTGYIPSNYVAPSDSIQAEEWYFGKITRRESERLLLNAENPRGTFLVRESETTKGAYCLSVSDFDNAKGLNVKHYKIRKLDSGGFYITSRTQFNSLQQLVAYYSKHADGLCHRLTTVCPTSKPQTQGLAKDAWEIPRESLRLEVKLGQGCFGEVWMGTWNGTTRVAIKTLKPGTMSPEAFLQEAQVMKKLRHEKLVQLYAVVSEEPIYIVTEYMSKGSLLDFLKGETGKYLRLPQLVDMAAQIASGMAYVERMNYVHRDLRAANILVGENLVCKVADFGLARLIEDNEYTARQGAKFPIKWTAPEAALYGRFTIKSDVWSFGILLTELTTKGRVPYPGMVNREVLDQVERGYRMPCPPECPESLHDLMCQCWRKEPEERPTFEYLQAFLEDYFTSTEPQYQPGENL
observation type: IC50 (nM)

                                   molecule                               target_desc  observation_type  value_observed
0  Cc1cc(Oc2ccccc2F)ccc1-n1ncc(C(=O)c2cc3cc(N4CCOCC4)c(N4CCC(N5CCOCC5)CC4)cc3[nH]2)c1N  human Src enzyme (Homo sapiens, UniProt P12931)              IC50              70
1  Cc1cc(Oc2c(F)cccc2F)ncc1-n1ncc(C(=O)c2cc3cc(OCC(F)F)c(NS(=O)(=O)c4cccc(Cl)c4)cc3[nH]2)c1N  human Src enzyme (Homo sapiens, UniProt P12931)              IC50             630
2  Cc1cc(Oc2ccccc2F)ccc1-n1ncc(C(=O)c2cc3cc(OC4CCN(C(C)C)CC4)c(Br)cc3[nH]2)c1N  human Src enzyme (Homo sapiens, UniProt P12931)              IC50             2.2
3  Cc1cc(Oc2c(F)cccc2F)ncc1-n1ncc(C(=O)c2cc3cc(OCC(F)F)c(N4C(=O)N[C@]5(CCNC5)C4=O)cc3[nH]2)c1N  human Src enzyme (Homo sapiens, UniProt P12931)              IC50              13
4  Cc1cc(Oc2c(F)cccc2F)ncc1-n1ncc(C(=O)c2cc3cc(OCC(F)F)c(NS(=O)(=O)c4ccc(Cl)cc4)cc3[nH]2)c1N  human Src enzyme (Homo sapiens, UniProt P12931)              IC50             630

a. Cc1cc(Oc2ccccc2F)ccc1-n1ncc(C(=O)c2cc3cc(OC4CCN(C(C)C)CC4)c(N4C(=O)NC(C)(C)C4=O)cc3[nH]2)c1N
b. COC(=O)[C@H](Cc1cnc[nH]1)NC(=O)Nc1cc2[nH]c(C(=O)c3cnn(-c4ccc(Oc5ccccc5F)cc4C)c3N)cc2cc1OCC(F)F
[ask] // compare: a vs b , metric IC50, want the smaller State the label of the item chosen.
[reply] a
(a: 2.3 nM, b: 16 nM)

A. Cc1cc2cc(C(=O)c3cnn(-c4ccc(Oc5ccccc5F)cc4C)c3N)[nH]c2cc1N1C(=O)NC2(CCNCC2)C1=O
B. Cc1cc(Oc2c(F)cccc2F)ncc1-n1ncc(C(=O)c2cc3cc(F)c(N4C(=O)NC(C)(C)C4=O)cc3[nH]2)c1N
C. Cc1cc2cc(C(=O)c3cnn(-c4cnc(Oc5c(F)cccc5F)cc4C)c3N)[nH]c2cc1N1C(=O)NC2(CCCC2)C1=O
[ask] Form: Sort by [IC50] Order [ ascending ] Your answer should be the labels, listed in the requested order.
[reply] A, B, C

P. Cc1cc2cc(C(=O)c3cnn(-c4cnc(Oc5c(F)cccc5F)cc4C)c3N)[nH]c2cc1N1C(=O)NC2(CCN(C3COC3)CC2)C1=O
Q. Cc1cc2cc(C(=O)c3cnn(-c4ccc(Oc5ccccc5F)cc4C)c3N)[nH]c2cc1N1C(=O)NC2(CCN(Cc3ccccc3)C2)C1=O (stereo not drawn)
R. Cc1cc(Oc2c(F)cccc2F)ncc1-n1ncc(C(=O)c2cc3cc(F)c(N4C(=O)C(C)(C)NC4=S)cc3[nH]2)c1N
S. Cc1cc(Oc2ccccc2F)nc(C)c1-n1ncc(C(=O)c2cc3cc(F)c(NS(C)(=O)=O)cc3[nH]2)c1N
T. Nc1c(C(=O)c2cc3cc(F)c(NS(=O)(=O)C4CC4)cc3[nH]2)cnn1-c1c(Cl)cc(Oc2cccc(F)c2F)cc1Cl
[ask] Reorder: IC50, max to min. Your answer should be the labels, listed in the requested order.
[reply] T, S, Q, R, P

I. Cc1cc(Oc2cccc(F)c2)ncc1-n1ncc(C(=O)c2cc3cc(F)c(NS(=O)(=O)CCCF)cc3[nH]2)c1N
II. Cc1cc2cc(C(=O)c3cnn(-c4ccc(Oc5ccccc5F)cc4C)c3N)[nH]c2cc1N1C(=O)NC2(CCCC2)C1=O
[ask] Which value of IC50 is greater, the one for I or the one for II ? State the label of the item chosen.
[reply] I

1. Nc1c(C(=O)c2cc3cc(F)c(NS(=O)(=O)C4CC4)cc3[nH]2)cnn1-c1c(F)cc(Oc2ccccc2F)cc1F
2. Cc1cc(-n2ncc(C(=O)c3cc4cc(OC5CCN(C(C)C)CC5)c(-c5cncnc5)cc4[nH]3)c2N)ccc1Oc1ccccc1F
3. Cc1cc(Oc2c(F)cccc2F)ncc1-n1ncc(C(=O)c2cc3cc(SC(F)F)c(NS(=O)(=O)C4CCOCC4)cc3[nH]2)c1N
4. Cc1cc(Oc2c(F)cccc2F)ncc1-n1ncc(C(=O)c2cc3cc(OC4CCN(CCO)CC4)c(Br)cc3[nH]2)c1N
[ask] Reorder: IC50, max to min. Your answer should be the labels, listed in the requested order.
[reply] 3, 1, 2, 4
(3: 510 nM, 1: 120 nM, 2: 75 nM, 4: 3.3 nM)

P. Cc1cc2cc(C(=O)c3cnn(-c4ccc(Oc5ccccc5F)cc4C)c3N)[nH]c2cc1N1C(=O)[C@@H]2C[C@H](NC(=O)OCC3c4ccccc4-c4ccccc43)CN2C1=O
Q. Cc1cc(-n2ncc(C(=O)c3cc4cc(OC(F)F)c(N)cc4[nH]3)c2N)ccc1Oc1ccccc1F
[ask] // compare: P vs Q , metric IC50, want the smaller State the label of the item chosen.
[reply] P

* * *

biological target: human Yes1 enzyme (Homo sapiens, UniProt P07947); construct: made in house; assay: Yes1 enzyme inhibitory activity (time-resolved fluorometry, biotinylated peptide phosphorylation); format: biochemical; conditions: read-out: YES_IC50
Sequence (P07947 whole entry): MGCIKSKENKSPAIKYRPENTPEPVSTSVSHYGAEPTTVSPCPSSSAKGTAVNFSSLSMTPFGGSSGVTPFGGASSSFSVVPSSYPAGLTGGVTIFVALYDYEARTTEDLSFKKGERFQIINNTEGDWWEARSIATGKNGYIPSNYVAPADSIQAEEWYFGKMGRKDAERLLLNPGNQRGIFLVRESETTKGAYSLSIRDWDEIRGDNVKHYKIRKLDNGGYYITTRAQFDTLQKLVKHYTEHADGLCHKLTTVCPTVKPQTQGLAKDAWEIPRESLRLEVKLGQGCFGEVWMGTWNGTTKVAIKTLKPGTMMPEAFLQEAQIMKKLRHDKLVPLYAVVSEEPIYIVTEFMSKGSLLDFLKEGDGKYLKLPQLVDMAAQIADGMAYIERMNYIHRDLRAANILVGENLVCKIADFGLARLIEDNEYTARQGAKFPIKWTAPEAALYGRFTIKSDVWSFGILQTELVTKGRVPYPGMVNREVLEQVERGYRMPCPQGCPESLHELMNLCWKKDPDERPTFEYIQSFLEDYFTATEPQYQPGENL
observation type: IC50 (nM)

Would you please look over these solved cases?
                         chemical_structure  value_observed
0  COc1ccc(Cl)c(S(=O)(=O)Nc2cc3[nH]c(C(=O)c4cnn(-c5cnc(Oc6c(F)cccc6F)cc5C)c4N)cc3cc2OCC(F)F)c1             6.5
1  Cc1cc(Oc2ccccc2F)ccc1-n1ncc(C(=O)c2cc3cc(OC(F)F)c(N4CC(C)(C)NS4(=O)=O)cc3[nH]2)c1N             2.1

P. Cc1cc(-n2ncc(C(=O)c3cc4cc(OC5CCN(C(C)C)CC5)c(N5C(=O)N[C@@H](CO)C5=O)cc4[nH]3)c2N)ccc1Oc1ccccc1F
Q. Cc1cc(Oc2c(F)cccc2F)ncc1-n1ncc(C(=O)c2cc3cc(OCC(F)F)c(-c4cncnc4)cc3[nH]2)c1N
[ask] // compare: P vs Q , metric IC50, want the smaller State the label of the item chosen.
[reply] P

A. Cc1cc(Oc2c(F)cccc2F)ncc1-n1ncc(C(=O)c2cc3cc(OC(F)F)c(NS(=O)(=O)C4CCOCC4)cc3[nH]2)c1N
B. Cc1cc(Oc2c(F)cccc2F)ncc1-n1ncc(C(=O)c2cc3cc(OC4CCN(C(C)C)CC4)c(N4CCOC4=O)cc3[nH]2)c1N
C. Cc1cc(Oc2c(F)cccc2F)ncc1-n1ncc(C(=O)c2cc3cc(OC4CCN(C5CS(=O)(=O)C5)CC4)c(-c4ccccc4C(F)(F)F)cc3[nH]2)c1N
D. Cc1cc(-n2ncc(C(=O)c3cc4cc(OCC(F)F)c(-c5cnn(C)c5)cc4[nH]3)c2N)ccc1Oc1ccccc1F
[ask] Form: Sort by [IC50] Order [ ascending ] Your answer should be the labels, listed in the requested order.
[reply] B, C, A, D

P. Cc1cc2cc(C(=O)c3cnn(-c4cnc(Oc5c(F)cccc5F)cc4C)c3N)[nH]c2cc1NS(=O)(=O)C1CCOCC1
Q. Cc1cc(Oc2ccccc2F)ccc1-n1ncc(C(=O)c2cc3cc(OC4CCN(C(C)C)CC4)c(Br)cc3[nH]2)c1N
R. Nc1c(C(=O)c2cc3cc(F)c(NS(=O)(=O)CCCF)cc3[nH]2)cnn1-c1c(Cl)cc(Oc2ccccc2F)cc1Cl
S. Cc1cc2cc(C(=O)c3cnn(-c4ccc(Oc5ccccc5)cc4C)c3N)[nH]c2cc1NS(C)(=O)=O
T. Cc1cc(Oc2c(F)cccc2F)ncc1-n1ncc(C(=O)c2cc3cc(OC(F)F)c(Br)cc3[nH]2)c1N
[ask] Reorder: IC50, max to min. Your answer should be the labels, listed in the requested order.
[reply] R, T, P, S, Q
(R: 8.4 nM, T: 5 nM, P: 2 nM, S: 0.57 nM, Q: 0.27 nM)

A. CC(C)N1CCC(c2cc3[nH]c(C(=O)c4cnn(-c5ccc(Oc6ccccc6Cl)cc5)c4N)cc3cc2F)CC1
B. Nc1c(C(=O)c2cc3cc(F)c(NS(=O)(=O)C4CC4)cc3[nH]2)cnn1-c1c(F)cc(Oc2ccccc2F)cc1F
C. Cc1cc(Oc2c(F)cccc2F)ncc1-n1ncc(C(=O)c2cc3cc(OCC(F)F)c(C4CCOCC4)cc3[nH]2)c1N
[ask] Form: Sort by [IC50] Order [ ascending ] Your answer should be the labels, listed in the requested order.
[reply] A, B, C
(A: 1.5 nM, B: 2.8 nM, C: 7.5 nM)

1. Cc1cc(Oc2ccccc2F)ccc1-n1ncc(C(=O)c2cc3cc(C4CC4)c(NS(=O)(=O)C4CCOCC4)cc3[nH]2)c1N
2. Cc1cc(Oc2ccccc2F)ccc1-n1ncc(C(=O)c2cc3cc(OC4CCN(C(C)C)CC4)c(NS(C)(=O)=O)cc3[nH]2)c1N
[ask] // compare: 1 vs 2 , metric IC50, want the smaller State the label of the item chosen.
[reply] 2

A. Cc1cc2cc(C(=O)c3cnn(-c4ccc(Oc5ccccc5F)cc4C)c3N)[nH]c2cc1N1C(=O)NC2(CCN(C3COC3)CC2)C1=O
B. Cc1cc(Oc2c(F)cccc2F)ncc1-n1ncc(C(=O)c2cc3cc(OCC(F)F)c(N4C(=O)N[C@]5(CCNC5)C4=O)cc3[nH]2)c1N
C. Cc1cc(Oc2ccccc2F)ccc1-n1ncc(C(=O)c2cc3cc(OCC(F)F)c(N4CC(C)(C)NS4(=O)=O)cc3[nH]2)c1N
D. Cc1cc(-n2ncc(C(=O)c3cc4cc(OC5CCN(C(C)C)CC5)c(-c5cccs5)cc4[nH]3)c2N)ccc1Oc1ccccc1F
[ask] Reorder: IC50, max to min. Your answer should be the labels, listed in the requested order.
[reply] D, C, A, B

a. Cc1cc(-n2ncc(C(=O)c3cc4cc(OC5CCN(C(C)C)CC5)c(Br)cc4[nH]3)c2N)ccc1Oc1cccc(F)c1
b. Cc1cc(Oc2c(F)cccc2F)ncc1-n1ncc(C(=O)c2cc3cc(F)c(N4CC(C)(C)NS4(=O)=O)cc3[nH]2)c1N
[ask] // compare: a vs b , metric IC50, want the smaller State the label of the item chosen.
[reply] b
(b: 2.4 nM, a: 6.5 nM)
